- Substrate: CCCCCCCCCC(=O)Oc1ccc([N+](=O)[O-])cc1
- ASSAY: pNP ester hydrolysis, Lineweaver-Burk
- Type: biochemical, Bacillus sp. L2
- MEASUREMENT_CONTEXT: 70 °C (optimum temperature), 0.6-5.0 mM substrate
PARAMETER_MEASURED: kcat/Km

wt-L2 lipase (Bacillus sp. L2; A36P) (protein, recombinant from pET32(B)+ in E. coli BL21(DE3), Ni Sepharose purified) ASLRANDPPIVLLHGFTGWGREEMFGFKYWGGVRGDIEQWLNDNGYRTYTLAVGPLSSNWDRACEAYAQLVGGTVDYGAAHAAKHGHARFGRTYPGLLPELKRGGRIHIIAHSQGGQTARMLVSLLENGSQEEREYAKAHNVSLSPLFEGGHHFVLSVTTIATPHDGTTLVNMVDFTDRFFDLQKAVLEAAAVASNVPYTSQVYDFKLDQWGLRRQPGESFDHYFERLKRSPVWTSTDTARYDLSVSGAEKLNQWVQASPNTYYLSFSTERTYRGALTGNHYPELGMNAFSAVVCAPFLGSYRNPTLGIDDRWLENDGIVNTVSMNGPKRGSSDRIVPYDGTLKKGVWNDMGTYNVDHLEIIGVDPNPSFDIRAFYLRLAEQLASLLP: 94900 M⁻¹ s⁻¹
